These data points were gathered from patent US20100056544A1.

Test: basic solubility screen of Compound 1 free acid in solvents
Type: physicochemical
Details: variety of solvents (Table 1), organic solvent or mixture, thermodynamic from solid
RECORDED_METRIC: Solubility

Entry under test: Cc1c(Cc2ccc3ccccc3n2)c2cc(F)ccc2n1CC(=O)O . Its Solubility was < 25 mg/mL

###

Test: Solubility of the salts in water determined by HPLC, with pH of the filtered mixtures
Settings: HPLC grade water, stirred 18 hours at 15 to 25° C., filtered, HPLC
Catalogue of molecules with associated Solubility
Expressed in µg/mL, but write only the number.

Check out these entries, answers already filled in.
Cc1c(Cc2ccc3ccccc3n2)c2cc(F)ccc2n1CC(=O)O [Ammonium]
4980
Cc1c(Cc2ccc3ccccc3n2)c2cc(F)ccc2n1CC(=O)O [Potassium]
32360
Cc1c(Cc2ccc3ccccc3n2)c2cc(F)ccc2n1CC(=O)O [Tris]
3260

Entry under test: Cc1c(Cc2ccc3ccccc3n2)c2cc(F)ccc2n1CC(=O)O [Compound 1] . Its Solubility was 50

Entry under test: Cc1c(Cc2ccc3ccccc3n2)c2cc(F)ccc2n1CC(=O)O [Sodium] . Its Solubility was 84280

###

Experiment: Solubility of the salts in water determined by HPLC, with pH of the filtered mixtures
Settings: pH of the filtered mixtures in water
RECORDED_METRIC: pH
Kindly provide the number alone.

Cc1c(Cc2ccc3ccccc3n2)c2cc(F)ccc2n1CC(=O)O [Sodium]
9
Cc1c(Cc2ccc3ccccc3n2)c2cc(F)ccc2n1CC(=O)O [Compound 1]
7
Cc1c(Cc2ccc3ccccc3n2)c2cc(F)ccc2n1CC(=O)O [Potassium]
12

Here is the next item to consider.
Entry under test: Cc1c(Cc2ccc3ccccc3n2)c2cc(F)ccc2n1CC(=O)O [Tris] . Its pH was 9
